Data provenance: the supplement of paper PMC10307832

- Test system: NCI-H2085
- experiment.description: relative viability (nuclei count vs DMSO), 5 days (fraction); higher = more cells survive
- stated.conditions: first compound 0.04 µM
recorded.metric: relative viability
Number only, no unit.

I am curious: what relative viability value has been reported for Clc1ccc(Nc2nnc(Cc3ccncc3)c3ccccc23)cc1 [Vatalanib] + O=C(CCCCCCC(=O)Nc1ccccc1)NO [Vorinostat] (partner 1 µM) ?
0.868

What about C[C@@H]1CN(CC(=O)Nc2ccc3c(c2)Cc2cccc(-c4cc(=O)cc(N5CCOCC5)o4)c2S3)C[C@H](C)O1 + CS(=O)(=O)CCNCc1ccc(-c2ccc3ncnc(Nc4ccc(OCc5cccc(F)c5)c(Cl)c4)c3c2)o1 [Lapatinib] (partner 2 µM) ?
0.402

What about COc1cc(N2CCC(C(N)=O)CC2)ccc1Nc1nc(N)c(Cl)c(Nc2ccccc2S(=O)(=O)C(C)C)n1 [HG-5-88-01] + CS(=O)(=O)N1CCN(Cc2cc3nc(-c4cccc5[nH]ncc45)nc(N4CCOCC4)c3s2)CC1 [Pictilisib] (partner 1 µM) ?
0.478

---

- System: NCI-H3122
- experiment.description: relative viability (nuclei count vs DMSO), 5 days (fraction); higher = more cells survive
- stated.conditions: first compound 0.1265 µM
# label = yes (1) if relative viability < 0.6 else no (0)

Hello, is relative viability of the following molecule strictly smaller than 0.6? COc1cc(N2CCC(C(N)=O)CC2)ccc1Nc1nc(N)c(Cl)c(Nc2ccccc2S(=O)(=O)C(C)C)n1 [HG-5-88-01] + CS(=O)(=O)CCNCc1ccc(-c2ccc3ncnc(Nc4ccc(OCc5cccc(F)c5)c(Cl)c4)c3c2)o1 [Lapatinib] (partner 2 µM)
yes (1)

What about COc1cc(N2CCC(C(N)=O)CC2)ccc1Nc1nc(N)c(Cl)c(Nc2ccccc2S(=O)(=O)C(C)C)n1 [HG-5-88-01] + COc1cccc2cc(-c3nc([C@H]4CC[C@H](C(=O)O)CC4)n4ncnc(N)c34)[nH]c12 [OSI-027] (partner 0.5 µM) ?
yes (1)

What about Clc1ccc(Nc2nnc(Cc3ccncc3)c3ccccc23)cc1 [Vatalanib] + C[C@]1(O)C[C@@H](c2nc(-c3ccc4ccc(-c5ccccc5)nc4c3)c3c(N)nccn32)C1 [Linsitinib] (partner 1 µM) ?
no (0)

What about Clc1ccc(Nc2nnc(Cc3ccncc3)c3ccccc23)cc1 [Vatalanib] + C[C@@H](Oc1cc(-c2cnn(C3CCNCC3)c2)cnc1N)c1c(Cl)ccc(F)c1Cl [Crizotinib] (partner 1 µM) ?
yes (1)

What about Clc1ccc(Nc2nnc(Cc3ccncc3)c3ccccc23)cc1 [Vatalanib] + CS(=O)(=O)CCNCc1ccc(-c2ccc3ncnc(Nc4ccc(OCc5cccc(F)c5)c(Cl)c4)c3c2)o1 [Lapatinib] (partner 2 µM) ?
no (0)

---

- System: NCI-H647
- experiment.description: relative viability (nuclei count vs DMSO), 5 days (fraction); higher = more cells survive
- stated.conditions: first compound 0.4 µM
# label = TRUE if relative viability < 1 else FALSE

Hello, is relative viability of the following compound strictly smaller than 1? Clc1ccc(Nc2nnc(Cc3ccncc3)c3ccccc23)cc1 [Vatalanib] + COc1cccc2cc(-c3nc([C@H]4CC[C@H](C(=O)O)CC4)n4ncnc(N)c34)[nH]c12 [OSI-027] (partner 0.5 µM)
TRUE

What about C[C@@H]1CN(CC(=O)Nc2ccc3c(c2)Cc2cccc(-c4cc(=O)cc(N5CCOCC5)o4)c2S3)C[C@H](C)O1 + NC(=O)Nc1cc(-c2cccc(F)c2)sc1C(=O)N[C@H]1CCCNC1 [AZD7762] (partner 0.2 µM) ?
TRUE

What about Clc1ccc(Nc2nnc(Cc3ccncc3)c3ccccc23)cc1 [Vatalanib] + CC(=O)c1c(C)c2cnc(Nc3ccc(N4CCNCC4)cn3)nc2n(C2CCCC2)c1=O [Palbociclib] (partner 0.5 µM) ?
TRUE

What about Clc1ccc(Nc2nnc(Cc3ccncc3)c3ccccc23)cc1 [Vatalanib] + CC(C)C[C@H](NC(=O)[C@H](Cc1ccccc1)NC(=O)c1cnccn1)B(O)O [Bortezomib] (partner 0.002 µM) ?
FALSE

What about Clc1ccc(Nc2nnc(Cc3ccncc3)c3ccccc23)cc1 [Vatalanib] + C[C@@H](Oc1cc(-c2cnn(C3CCNCC3)c2)cnc1N)c1c(Cl)ccc(F)c1Cl [Crizotinib] (partner 1 µM) ?
FALSE

What about Clc1ccc(Nc2nnc(Cc3ccncc3)c3ccccc23)cc1 [Vatalanib] + Nc1nc2[nH]cc(CCc3ccc(C(=O)N[C@@H](CCC(=O)O)C(=O)O)cc3)c2c(=O)[nH]1 [Pemetrexed] (partner 0.2 µM) ?
TRUE

What about Clc1ccc(Nc2nnc(Cc3ccncc3)c3ccccc23)cc1 [Vatalanib] + O=C(CCCCCCC(=O)Nc1ccccc1)NO [Vorinostat] (partner 1 µM) ?
TRUE

What about Clc1ccc(Nc2nnc(Cc3ccncc3)c3ccccc23)cc1 [Vatalanib] + C[C@]1(O)C[C@@H](c2nc(-c3ccc4ccc(-c5ccccc5)nc4c3)c3c(N)nccn32)C1 [Linsitinib] (partner 1 µM) ?
FALSE
